Reference source: the supplement of paper PMC10307832

We begin with a simple list: items and their reported relative viability.
Test system: NCI-H2170
Assay: relative viability (nuclei count vs DMSO), 5 days (fraction); higher = more cells survive
Conditions: first compound 0.1265 µM

compound	relative viability
O=C(O)c1ccc(-c2c[nH]c3ncc(-c4ccccc4)cc23)cc1C1CCCC1 + Nc1ncn([C@H]2C[C@H](O)[C@@H](CO)O2)c(=O)n1 [Decitabine] (partner 2 µM)	0.478
O=C(O)c1ccc(-c2c[nH]c3ncc(-c4ccccc4)cc23)cc1C1CCCC1 + COc1cccc2cc(-c3nc([C@H]4CC[C@H](C(=O)O)CC4)n4ncnc(N)c34)[nH]c12 [OSI-027] (partner 0.5 µM)	0.685
O=C(O)c1ccc(-c2c[nH]c3ncc(-c4ccccc4)cc23)cc1C1CCCC1 + O=C(CCCCCCC(=O)Nc1ccccc1)NO [Vorinostat] (partner 1 µM)	0.863
O=C(O)c1ccc(-c2c[nH]c3ncc(-c4ccccc4)cc23)cc1C1CCCC1 + CC1(C)CCC(c2ccc(Cl)cc2)=C(CN2CCN(c3ccc(C(=O)NS(=O)(=O)c4ccc(N[C@H](CCN5CCOCC5)CSc5ccccc5)c(S(=O)(=O)C(F)(F)F)c4)cc3)CC2)C1 [Navitoclax] (partner 0.5 µM)	0.64
O=C(O)c1ccc(-c2c[nH]c3ncc(-c4ccccc4)cc23)cc1C1CCCC1 + CC(=O)Nc1cccc(-n2c(=O)n(C3CC3)c(=O)c3c(Nc4ccc(I)cc4F)n(C)c(=O)c(C)c32)c1 [Trametinib] (partner 0.02 µM)	0.925
O=C(O)c1ccc(-c2c[nH]c3ncc(-c4ccccc4)cc23)cc1C1CCCC1 + NC(=O)Nc1cc(-c2cccc(F)c2)sc1C(=O)N[C@H]1CCCNC1 [AZD7762] (partner 0.2 µM)	1.03

====

Tested on: NCI-H1944
Experiment: relative viability (nuclei count vs DMSO), 5 days (fraction); higher = more cells survive
Conditions: first compound 0.03162 µM

compound	relative viability
NC(=O)Nc1cc(-c2cccc(F)c2)sc1C(=O)N[C@H]1CCCNC1 [AZD7762] + COc1cccc2cc(-c3nc([C@H]4CC[C@H](C(=O)O)CC4)n4ncnc(N)c34)[nH]c12 [OSI-027] (partner 0.5 µM)	0.467
NC(=O)Nc1cc(-c2cccc(F)c2)sc1C(=O)N[C@H]1CCCNC1 [AZD7762] + O=C(CCCCCCC(=O)Nc1ccccc1)NO [Vorinostat] (partner 1 µM)	0.654
NC(=O)Nc1cc(-c2cccc(F)c2)sc1C(=O)N[C@H]1CCCNC1 [AZD7762] + C[C@@H](Oc1cc(-c2cnn(C3CCNCC3)c2)cnc1N)c1c(Cl)ccc(F)c1Cl [Crizotinib] (partner 1 µM)	1.22
NC(=O)Nc1cc(-c2cccc(F)c2)sc1C(=O)N[C@H]1CCCNC1 [AZD7762] + Nc1ncn([C@H]2C[C@H](O)[C@@H](CO)O2)c(=O)n1 [Decitabine] (partner 2 µM)	0.494

====

System: LOU-NH91
Assay: relative viability (nuclei count vs DMSO), 5 days (fraction); higher = more cells survive
Details: first compound 2.53 µM

compound	system_name	relative viability
Oc1nc(-c2ccc(C(F)(F)F)cc2)nc2c1CSCC2 [XAV939] + CC(C)C[C@H](NC(=O)[C@H](Cc1ccccc1)NC(=O)c1cnccn1)B(O)O [Bortezomib] (partner 0.002 µM)	LOU-NH91	0.415
Oc1nc(-c2ccc(C(F)(F)F)cc2)nc2c1CSCC2 [XAV939] + O=C(c1cc(Cc2n[nH]c(=O)c3ccccc23)ccc1F)N1CCN(C(=O)C2CC2)CC1 [Olaparib] (partner 8 µM)	LOU-NH91	0.887
Oc1nc(-c2ccc(C(F)(F)F)cc2)nc2c1CSCC2 [XAV939] + Cc1nc(NC(=O)N2CCC[C@H]2C(N)=O)sc1-c1ccnc(C(C)(C)C(F)(F)F)c1 [Alpelisib] (partner 2 µM)	LOU-NH91	0.648
Oc1nc(-c2ccc(C(F)(F)F)cc2)nc2c1CSCC2 [XAV939] + CC(=O)c1c(C)c2cnc(Nc3ccc(N4CCNCC4)cn3)nc2n(C2CCCC2)c1=O [Palbociclib] (partner 0.5 µM)	LOU-NH91	0.419
Oc1nc(-c2ccc(C(F)(F)F)cc2)nc2c1CSCC2 [XAV939] + Cc1nc(Nc2ncc(C(=O)Nc3c(C)cccc3Cl)s2)cc(N2CCN(CCO)CC2)n1 [Dasatinib] (partner 0.075 µM)	LOU-NH91	0.526
C=C1C(=O)O[C@@H](CCCCCCCC)[C@@H]1C(=O)O [C-75] + Cc1cc(Nc2cc(N3CCN(C)CC3)nc(Sc3ccc(NC(=O)C4CC4)cc3)n2)n[nH]1 [Tozasertib] (partner 0.1 µM)	LOU-NH91	0.495
